Details: buffer; pH 7.4; 200.0 µM
Listed here are compounds together with their documented solubility kinetic.

- CN1CCN2c3ccccc3CC3(C(=O)N(C)C(=O)N(C)C3=O)C2C1 (configuration not stated): > 51.4 µg/mL
- C=CCn1c(O)c(C(C)=NCCCN(C)C)c(=O)[nH]c1=O: > 44.2 µg/mL
- Cc1ccc(/C=N/NC(=O)c2cccnc2)o1: > 34.4 µg/mL
- CCCCC(=O)NC(c1ccccc1)c1ccc2cccnc2c1O (configuration not stated): < 0.4 µg/mL
- Cc1cccc(/N=C/c2sc3ccccc3c2O)n1: 1.1 µg/mL
- COc1ccccc1N1CCN(C(=O)c2c(C)noc2C)CC1: > 47.3 µg/mL

Next compound, please.
The recorded solubility kinetic for entry `c1ccc2c(OCCCCN3CCCC3)cccc2c1` equals 40.1 µg/mL

---

Conditions: buffer; pH 7.4; 200.0 µM
readout kind: solubility kinetic (µg/mL)
The answer is to be given in µg/mL; state only the numeric part.

* COc1cc2c(C(=O)O)c(C)n(-c3ccccc3)c2c2ccccc12 | 1.3

The recorded solubility kinetic for entry `COc1ccccc1NC(=O)CCn1c(=S)oc2ccccc21` equals 7

The recorded solubility kinetic for entry CC1CCC(NC(=O)c2cc3c(s2)CCCC3)CC1 (configuration not stated) equals 2.8

The recorded solubility kinetic for entry `O=C(c1ccc(Cl)cc1)N1CCc2ccccc21` equals 7.2

The recorded solubility kinetic for entry CC(=O)Nc1ccc(N2C(=O)CSC2c2ccccc2[N+](=O)[O-])cc1 (configuration not stated) equals 41.1

The recorded solubility kinetic for entry CCCCN1C(=O)N(c2ccccc2Cl)C(C)(O)CC1(C)C (configuration not stated) equals 47.6

The recorded solubility kinetic for entry `CCC1(CC)Cc2ccccc2-c2[nH]c(=S)[nH]c(=O)c21` equals 27.3

The recorded solubility kinetic for entry `O=C(NCc1ccccc1)c1c[nH]c2ccccc2c1=O` equals 39.3

---

Listed here are compounds together with their documented solubility kinetic.
Conditions: buffer; pH 7.4; 200.0 µM

Guide cases for solubility kinetic, answers given:
- Cn1cnc2cc(NCc3ccc(Cl)cc3)ccc21: > 40.8 µg/mL
- CC1=C(C(=O)OC(C)C)C(c2cccs2)NC(=O)N1 (configuration not stated): 37.2 µg/mL
- COc1cccc(C(=O)Nc2cccc(-c3ccccc3)c2)c1: 2.5 µg/mL
- CCOc1cc(/C=C2/C(=O)ON=C2C)cc(Br)c1O: > 48.9 µg/mL
- Cc1noc(C)c1CC(=O)Nc1ccc2c(c1)OCO2: > 41.1 µg/mL
- COc1ccc(CCN(C)C2CCCN(S(C)(=O)=O)C2)cc1OC (configuration not stated): > 53.5 µg/mL

The recorded solubility kinetic for entry CC1CC(C)(C)NC(=S)O1 (configuration not stated) equals > 23.9 µg/mL

The recorded solubility kinetic for entry `Brc1ccccc1-c1cnco1` equals 8.5 µg/mL

---

Conditions: buffer; pH 7.4; 200.0 µM
readout kind: log10 of solubility kinetic (log10 of the value in µg/mL)
Recall that a logarithmic scale is used here: each number is log10 of solubility kinetic in µg/mL.

Guide cases for log10 of solubility kinetic, answers given:
- CCn1c(SCc2ccccc2)nc2ccccc2c1=O: 0.11
- O=C(Nc1ccccc1)N1CCCN(c2nccc(C(F)(F)F)n2)CC1: 0.23
- Cc1ccc(NC(=O)Nc2cc(C)on2)cc1: 1.11

The recorded log10 of solubility kinetic for entry `COc1ccc(CNC(=O)N2CCc3ccccc3C2)cc1Cl` equals 1.48

The recorded log10 of solubility kinetic for entry `Cc1ccc(N(Cc2ccccc2)C(=O)c2ccc(F)cc2)cc1` equals 0.96

Origin of measurements: PubChem BioAssay AID1996
